# procedureText: self-splicing fitness, log relative to wild type (ln ratio); higher = more splicing; Tetrahymena group I intron in knt gene, E. coli kanamycin selection, DiMSum; sequences stand for … in CUCUCU…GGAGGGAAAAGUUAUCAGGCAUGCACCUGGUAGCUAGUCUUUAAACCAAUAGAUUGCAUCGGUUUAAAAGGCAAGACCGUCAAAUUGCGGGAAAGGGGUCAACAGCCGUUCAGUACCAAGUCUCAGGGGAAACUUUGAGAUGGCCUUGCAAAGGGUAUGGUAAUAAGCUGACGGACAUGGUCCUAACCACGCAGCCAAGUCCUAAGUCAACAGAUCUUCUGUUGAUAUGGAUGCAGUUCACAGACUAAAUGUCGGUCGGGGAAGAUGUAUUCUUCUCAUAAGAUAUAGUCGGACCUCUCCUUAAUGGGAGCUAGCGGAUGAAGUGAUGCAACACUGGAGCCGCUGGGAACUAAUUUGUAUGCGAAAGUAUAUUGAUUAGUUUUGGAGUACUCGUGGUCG;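 note: selection with 25 µg/mL kanamycin versus none on LB agar overnight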
# conditionSet: 37 °C
label 1 means recorded self-splicing fitness (ln) is -0.7 or above; label 0 means it is below -0.7.

Recorded results for 5 sequences are shown here.
UUUAAGCAAUAUUACGUAUG: label 1
ACAAAGCAAUAUUACGGAUG: label 0
AACAAGCAAUAUUACGGCAA: label 1
CUGUAGCAAUAUUACGAAUG: label 1
GUCGAGCAAUAUUACGCUAA: label 0

Prompt: Determine whether this sequence has self-splicing fitness (ln) no lower than -0.7: UAUAAGCAAUAUUACGUCAG
Completion: label 1

Prompt: Determine whether this sequence has self-splicing fitness (ln) no lower than -0.7: UCGCAGCAAUAUUACGCGCA
Completion: label 1

----------
# procedureText: self-splicing fitness, log relative to wild type (ln ratio); higher = more splicing; Tetrahymena group I intron in knt gene, E. coli kanamycin selection, DiMSum; sequences stand for … in CUCUCU…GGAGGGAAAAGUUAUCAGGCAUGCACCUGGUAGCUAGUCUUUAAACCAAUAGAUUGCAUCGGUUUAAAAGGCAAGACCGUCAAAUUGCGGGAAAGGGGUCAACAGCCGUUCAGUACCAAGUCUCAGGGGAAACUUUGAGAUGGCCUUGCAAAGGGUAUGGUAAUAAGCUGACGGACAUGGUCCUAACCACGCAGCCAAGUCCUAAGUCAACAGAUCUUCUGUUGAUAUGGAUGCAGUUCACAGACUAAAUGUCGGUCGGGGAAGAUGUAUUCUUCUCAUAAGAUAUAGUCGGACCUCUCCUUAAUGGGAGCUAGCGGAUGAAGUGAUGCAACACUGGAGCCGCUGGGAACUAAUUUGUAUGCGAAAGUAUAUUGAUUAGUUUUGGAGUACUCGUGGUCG
# conditionSet: 30 °C
Kindly note that classification relies on self-splicing fitness (ln) with these boundaries: interval 1: < -3; interval 2: ≥ -3 and < -2; interval 3: ≥ -2

Recorded results for 2 sequences are shown here.
GAAUAGCAAUAUUACGUAUC: interval 3
AUUAAGCAAUAUUACGACGU: interval 3

Prompt: Which of the defined bands does the recorded self-splicing fitness (ln) of AUAUAGCAAUAUUACGCUUC sit within?
Completion: interval 2

Prompt: Which of the defined bands does the recorded self-splicing fitness (ln) of GAAUAGCAAUAUUACGUCAC sit within?
Completion: interval 2

----------
self-splicing fitness (ln) values for the sequences below.
# procedureText: self-splicing fitness, log relative to wild type (ln ratio); higher = more splicing; Tetrahymena group I intron in knt gene, E. coli kanamycin selection, DiMSum; sequences stand for … in CUCUCU…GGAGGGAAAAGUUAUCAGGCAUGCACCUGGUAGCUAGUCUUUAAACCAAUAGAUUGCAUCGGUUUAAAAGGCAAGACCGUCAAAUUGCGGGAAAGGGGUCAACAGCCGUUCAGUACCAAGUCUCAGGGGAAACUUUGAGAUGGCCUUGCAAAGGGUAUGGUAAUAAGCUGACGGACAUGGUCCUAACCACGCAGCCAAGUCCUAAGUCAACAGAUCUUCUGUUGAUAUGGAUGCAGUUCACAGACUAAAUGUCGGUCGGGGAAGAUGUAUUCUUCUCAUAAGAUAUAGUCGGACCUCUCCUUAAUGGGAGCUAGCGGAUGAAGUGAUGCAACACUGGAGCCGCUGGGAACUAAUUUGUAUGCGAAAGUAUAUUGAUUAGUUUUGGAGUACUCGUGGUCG
# conditionSet: 37 °C
Give the figure by itself; no unit, no explanation.

CGGUAGCAAUAUUACGCAAC: -1.42
AUAUAGCAAUAUUACGCUCC: -0.476
ACCGAGCAAUAUUACGAUCG: -1.64
UGUCAGCAAUAUUACGGGGC: -3.02
GAUUAGCAAUAUUACGGGAC: -1.53

Prompt: Field request: self-splicing fitness (ln) | item: GGCCAGCAAUAUUACGACUU
Completion: 0.435

Prompt: Field request: self-splicing fitness (ln) | item: AAACAGCAAUAUUACGAUCA
Completion: -0.178

Prompt: Field request: self-splicing fitness (ln) | item: CUUUAGCAAUAUUACGUUCG
Completion: 0.499

All values here come from the supplement of paper PMC7877785.
